mean fluorescence relative to chimeric antibody listing for selected binders.
target.entity: T1, dog CD47 (dog, UniProt A0A8I3PM61 19-310)
T1 construct: also called CD47 on dog RBCs
T1 sequence: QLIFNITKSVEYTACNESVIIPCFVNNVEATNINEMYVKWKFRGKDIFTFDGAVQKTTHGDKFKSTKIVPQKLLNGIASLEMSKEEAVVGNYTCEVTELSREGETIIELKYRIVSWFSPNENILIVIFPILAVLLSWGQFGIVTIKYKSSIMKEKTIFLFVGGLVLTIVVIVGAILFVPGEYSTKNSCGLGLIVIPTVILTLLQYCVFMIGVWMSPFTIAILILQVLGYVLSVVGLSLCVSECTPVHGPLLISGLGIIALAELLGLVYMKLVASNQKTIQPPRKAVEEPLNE
procedure.text: flow cytometry on RBCs, CHO supernatant 10 ng/ml
Answers without a unit are incomplete; give the number and then its unit.

Prompt: I have this binder here, Clone 24 (pVxK7b-037-hum24-LC / pVxK7b-037-hum24-HC) (antibody, human IgG1, kappa, V domains shown, also called Cl 24) VH: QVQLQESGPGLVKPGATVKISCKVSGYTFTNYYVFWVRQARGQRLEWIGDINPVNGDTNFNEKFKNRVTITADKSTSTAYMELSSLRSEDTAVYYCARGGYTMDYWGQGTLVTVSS VL: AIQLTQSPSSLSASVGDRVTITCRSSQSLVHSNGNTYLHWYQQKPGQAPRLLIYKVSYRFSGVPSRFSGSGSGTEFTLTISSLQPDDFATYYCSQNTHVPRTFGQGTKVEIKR , and I need its recorded mean fluorescence relative to chimeric antibody.
Completion: 1 ratio

New cases:
Prompt: Data request, read-out mean fluorescence relative to chimeric antibody, for Clone 16 (pVxK7b-037-hum16-LC / pVxK7b-037-hum16-HC) (antibody, human IgG1, kappa, V domains shown) VH: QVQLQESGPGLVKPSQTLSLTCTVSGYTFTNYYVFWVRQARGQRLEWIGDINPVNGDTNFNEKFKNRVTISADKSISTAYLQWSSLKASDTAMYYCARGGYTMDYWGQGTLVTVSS VL: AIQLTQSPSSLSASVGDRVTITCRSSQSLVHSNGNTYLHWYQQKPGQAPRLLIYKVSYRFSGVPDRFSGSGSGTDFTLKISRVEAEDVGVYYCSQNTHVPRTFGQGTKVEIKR
Completion: 1.1 ratio
